Hey, just so you know, these numbers are from patent EP0908457B1.

Test system: Oryza sativa, (L.) Tebonnet
Assay overview: Rice tolerance to post-transplant applications under flooded paddy conditions (Example 187), ORYSAT (Rice, Tebonnet)
Experimental parameters: 0.2500 kg/ha, rated three to four weeks after treatment
I'd be grateful if you could share measured ORYSAT herbicidal rating (rice tolerance) for these entries.
No unit in the answer, please; the number alone is enough.

Provide ORYSAT herbicidal rating (rice tolerance) value for the following compound: Cc1ccc(CS(=O)(=O)NC(=O)c2nsc3ccc(-n4c(=O)cc(C(F)(F)F)n(C)c4=O)cc23)cc1
4.0

Provide ORYSAT herbicidal rating (rice tolerance) value for the following compound: COC(=O)C(C)Oc1ccc(I)cc1-c1nsc2ccc(-n3c(=O)cc(C(F)(F)F)n(C)c3=O)cc12 (centres unmarked)
5.0

Provide ORYSAT herbicidal rating (rice tolerance) value for the following compound: C=CCOc1c(I)cc(C)cc1-c1nsc2ccc(-n3c(=O)cc(C(F)(F)F)n(C)c3=O)cc12
6.0

Provide ORYSAT herbicidal rating (rice tolerance) value for the following compound: CC(C)NS(=O)(=O)NC(=O)c1nsc2ccc(-n3c(=O)cc(C(F)(F)F)n(C)c3=O)cc12
6.0

Provide ORYSAT herbicidal rating (rice tolerance) value for the following compound: Cn1c(C(F)(F)F)cc(=O)n(-c2ccc3snc(C(=O)NS(N)(=O)=O)c3c2)c1=O
6.0

Provide ORYSAT herbicidal rating (rice tolerance) value for the following compound: Cn1c(C(F)(F)F)cc(=O)n(-c2ccc3snc(C(=O)NS(=O)(=O)/C=C/c4ccccc4)c3c2)c1=O
4.0

Provide ORYSAT herbicidal rating (rice tolerance) value for the following compound: COC(=O)C(C)Oc1cc(Cl)c(C)cc1-c1nsc2ccc(-n3c(=O)cc(C(F)(F)F)n(C)c3=O)cc12 (centres unmarked)
3.0

Provide ORYSAT herbicidal rating (rice tolerance) value for the following compound: Cc1ccc(OC(C)(C)C(=O)OC(C)(C)C)c(-c2nsc3ccc(-n4c(=O)cc(C(F)(F)F)n(C)c4=O)cc23)c1
4.0
